test: Mammalian cell cytotoxicity assay, HEK293T (CellTiter-Glo, 72 h)
runConditions: human, HEK293T cells
Counter-ions that a name gives are not always drawn.
readoutName: log10 of CC50 at 72 h (log10 of the value in nM)

INSERT INTO measurements (compound, readoutname, resultvalue) VALUES
  ('COc1ccc(-c2ccc3ncc4c(c3c2)n(-c2ccc(N3CCNCC3)c(C(F)(F)F)c2)c(=O)n4C)cn1 [NVP-BGT226, reference compound]', 'log10 of CC50 at 72 h', 1.54),
  ('CN1CCN(C2CCN(C(=O)Nc3cc(Oc4ccc(NC(=O)C5(C(=O)Nc6ccc(F)cc6)CC5)c(F)c4)ccn3)CC2)CC1', 'log10 of CC50 at 72 h', 3.64),
  ('C/C(=C\c1csc(C)n1)[C@@H]1C[C@@H]2O[C@]2(C)CCC[C@H](C)[C@H](O)[C@@H](C)C(=O)C(C)(C)[C@@H](O)CC(=O)N1 [Ixabepilone]', 'log10 of CC50 at 72 h', 1.18),
  ('C[C@@H](Oc1ccc2[nH]nc(/C=C/c3cnn(CCO)c3)c2c1)c1c(Cl)cncc1Cl', 'log10 of CC50 at 72 h', 2.94),
  ('N[C@H](C(=O)O)[C@@H]1CC(Cl)=NO1', 'log10 of CC50 at 72 h', 3.89),
  ('FC(F)c1nc2ccccc2n1-c1nc(N2CCOCC2)nc(N2CCOCC2)n1', 'log10 of CC50 at 72 h', 2.88),
  ('COCCn1c2c([n+](Cc3cnccn3)c1C)C(=O)c1ccccc1C2=O [Sepantronium bromide]', 'log10 of CC50 at 72 h', 1.75),
  ('CCc1cc2c(cc1N1CCC(N3CCOCC3)CC1)C(C)(C)c1[nH]c3cc(C#N)ccc3c1C2=O [Alectinib Hydrochloride]', 'log10 of CC50 at 72 h', 2.90);
